Data origin: paper PMC2074348

Assay: in vivo
Settings: male, CD-1, mouse, ip, 20 mg/kg
readout: half-life (h)
Answer with a number only, understood to be in h.

May I ask what half-life has been recorded for CC(=O)O[C@H]1C(=O)[C@@]2(C)[C@H]([C@H](OC(=O)c3ccccc3)[C@]3(O)C[C@H](OC(=O)[C@H](O)[C@@H](NC(=O)c4ccccc4)c4ccccc4)C(C)=C1C3(C)C)[C@]1(OC(C)=O)CO[C@@H]1C[C@@H]2O [Paclitaxel, reference compound] ?
2.9

----------
Experiment: in vivo
Conditions: male, CD-1, mouse, ip, 20 mg/kg
readout: Tmax
Value and unit, in that order.

What value of measured Tmax is listed for CC(=O)O[C@H]1C(=O)[C@@]2(C)[C@H]([C@H](OC(=O)c3ccccc3)[C@]3(O)C[C@H](OC(=O)[C@H](O)[C@@H](NC(=O)c4ccccc4)c4ccccc4)C(C)=C1C3(C)C)[C@]1(OC(C)=O)CO[C@@H]1C[C@@H]2O [Paclitaxel, reference compound] ?
1.5 h
